Target: bradykinin 1 receptor (B1R) of the rat (Rattus norvegicus)
Construct: expressed in transfected cells; host or cells: CHO K1 cells
Sequence (P97583 1-337): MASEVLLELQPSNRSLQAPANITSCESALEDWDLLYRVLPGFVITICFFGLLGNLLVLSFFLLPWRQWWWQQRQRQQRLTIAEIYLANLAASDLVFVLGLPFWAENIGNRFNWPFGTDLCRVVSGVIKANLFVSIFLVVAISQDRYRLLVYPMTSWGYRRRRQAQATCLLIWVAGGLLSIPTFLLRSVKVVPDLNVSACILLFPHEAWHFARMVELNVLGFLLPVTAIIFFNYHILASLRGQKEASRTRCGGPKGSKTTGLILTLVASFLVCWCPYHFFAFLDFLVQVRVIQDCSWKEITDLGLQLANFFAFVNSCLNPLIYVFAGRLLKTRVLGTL
Experiment: Functional investigation on the rat bradykinin 1 receptor (B1R), Ca2+ FLIPR assay in CHO K1 rB1R cells
Assay type: cell-based
Conditions: CHO-K1, B1R antagonism rat; test substance 10 μM; Ca2+ FLIPR, CHO K1 rB1R cells; read-out: B1R Ant. r [10 μM] % Inhibition
Endpoint: inhibition at 10 µM (%)
Dear colleague, please return just the value in %, with no unit written.

Reported inhibition at 10 µM of CN(C)C(c1ccccc1)C1CCC(CNC(=O)COC2CCN(S(=O)(=O)c3ccc(Cl)cc3)C2)CC1 (stereo not drawn) : 5

Record O=C(COC1CCCN(S(=O)(=O)c2c(Cl)cc(Cl)cc2Cl)C1)NC1CCC(C(c2ccccc2)N2CCOCC2)CC1 (stereo not drawn) , field inhibition at 10 µM: 6

Noted for CN(C)C(c1cccs1)C1CCC(CCNC(=O)COCCN(C)S(=O)(=O)c2ccc(Cl)cc2Cl)CC1 (stereo not drawn) : its inhibition at 10 µM reads 43

Sample Cc1cc(C)c(S(=O)(=O)N2CCC(OCC(=O)NCC3CCC(C(c4cccc(F)c4)N(C)C)CC3)C2)c(C)c1 (stereo not drawn) ; inhibition at 10 µM observed: 26

inhibition at 10 µM recorded for this molecule, COc1cc(C)c(S(=O)(=O)N(C)CCOCC(=O)NCC2CCC(C(c3ccccc3)N(C)C)CC2)c(C)c1 (stereo not drawn) , is 100

// COc1ccc(-c2noc(C(=O)NCCC(=O)NC3CCC(C(CCc4ccccc4)N(C)C)CC3)n2)cc1OC (stereo not drawn) : inhibition at 10 µM value = -6

Reported inhibition at 10 µM for CN(C)C(c1cccs1)C1CCC(CNC(=O)COCCN(C)S(=O)(=O)c2ccc(Cl)cc2)CC1 (stereo not drawn) was 34

Field inhibition at 10 µM (entry O=C(COC1CCN(S(=O)(=O)c2c(Cl)cc(Cl)cc2Cl)C1)NCC1CCC(C(c2ccccc2)N2CCOCC2)CC1 (stereo not drawn) ) reads 10

# inhibition at 10 µM of CN(C)C(c1cccc(F)c1)C1CCC(CNC(=O)COCC2CCCCN2S(=O)(=O)c2ccc(Cl)c(Cl)c2)CC1 (stereo not drawn) = 9

Cc1cc(C)c(S(=O)(=O)N2CCC(OCC(=O)NCC3CCC(C(c4ccccc4)N(C)C)CC3)C2)c(C)c1 (stereo not drawn) has a reported inhibition at 10 µM of 38

Looking up CN(C)C(c1ccccc1)C1CCC(CNC(=O)COCC2CCCN2S(=O)(=O)c2ccc(Cl)c(Cl)c2)CC1 (stereo not drawn) , I see its inhibition at 10 µM listed as 11

inhibition at 10 µM reading for CN1CCN(C(c2ccccc2)C2CCC(NC(=O)COC3CCCN(S(=O)(=O)c4c(Cl)cc(Cl)cc4Cl)C3)CC2)CC1 (stereo not drawn) : 41

inhibition at 10 µM reading for CN(C)C(c1cccs1)C1CCC(NC(=O)COC2CCN(S(=O)(=O)c3ccc(F)cc3)C2)CC1 (stereo not drawn) : 17

Lab note: CN(C)C(c1cccs1)C1CCC(CNC(=O)COCCN(C)S(=O)(=O)c2ccc(Cl)cc2Cl)CC1 (stereo not drawn) gave inhibition at 10 µM of 62

The value of inhibition at 10 µM measured for the molecule CN(CCOCC(=O)NCC1CCC(C(CCc2ccccc2)N2CCOCC2)CC1)S(=O)(=O)c1c(Cl)cc(C(F)(F)F)cc1Cl (stereo not drawn) turned out to be 9
